Target: Delta-type opioid receptor (Rattus norvegicus, UniProt P33533)
Sequence (P33533 whole entry): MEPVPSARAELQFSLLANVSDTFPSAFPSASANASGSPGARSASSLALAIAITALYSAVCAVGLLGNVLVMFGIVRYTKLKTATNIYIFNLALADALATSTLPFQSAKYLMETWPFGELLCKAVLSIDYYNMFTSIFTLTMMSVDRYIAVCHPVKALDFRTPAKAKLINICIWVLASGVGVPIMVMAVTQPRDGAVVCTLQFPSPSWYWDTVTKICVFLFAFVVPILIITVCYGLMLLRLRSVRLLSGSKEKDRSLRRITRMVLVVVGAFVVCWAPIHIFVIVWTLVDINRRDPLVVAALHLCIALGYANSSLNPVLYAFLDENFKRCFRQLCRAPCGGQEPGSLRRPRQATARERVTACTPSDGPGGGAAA
Assay: Binding affinity of compound evaluated for Opioid receptor delta 1 isolated from rat brain

[
  {
    "compound": "C=CCN1C[C@H](C)N([C@@H](c2cccc(O)c2)c2cccc(C(=O)N(C)c3ccc(Cl)cc3)c2)C[C@H]1C",
    "Ki / nM": 2.73
  },
  {
    "compound": "C=CCN1C[C@H](C)N([C@@H](c2cccc(O)c2)c2cccc(C(=O)N(CC)c3ccccc3)c2)C[C@H]1C",
    "Ki / nM": 2.17
  },
  {
    "compound": "C=CCN1C[C@H](C)N([C@@H](c2cccc(O)c2)c2cccc(C(=O)N(C)c3ccc(F)cc3)c2)C[C@H]1C",
    "Ki / nM": 1.4
  },
  {
    "compound": "C=CCN1C[C@H](C)N([C@@H](c2cccc(O)c2)c2cccc(C(=O)N(C)c3cccc(F)c3)c2)C[C@H]1C (stereo in doubt; 32)",
    "Ki / nM": 11.4
  },
  {
    "compound": "C=CCN1C[C@H](C)N([C@@H](c2cccc(O)c2)c2cccc(C(=O)N(C)c3ccc(OC)cc3)c2)C[C@H]1C",
    "Ki / nM": 2.01
  },
  {
    "compound": "C=CCN1C[C@H](C)N(C(c2ccc(C(=O)N(CC)CC)cc2)c2cccc(O)c2)C[C@H]1C (single isomer, unassigned)",
    "Ki / nM": 1.8
  },
  {
    "compound": "C=CCN1C[C@H](C)N([C@@H](c2cccc(O)c2)c2cccc(C(=O)N(C)c3ccccc3)c2)C[C@H]1C",
    "Ki / nM": 1.37
  }
]

###

Species: Cavia porcellus
Assay: Inhibition of the electrically induced muscle contractions was determined using the guinea pig ileum
Assay type: functional
Settings: Cavia porcellus, Ileum
pEC50: −log10 of the molar value.
Label Yes when pEC50 is at or above 8; anything below gets No.

[
  {
    "compound": "C=CCN1C[C@H](C)N([C@@H](c2cccc(O)c2)c2cccc(C(=O)N(C)c3ccc(Cl)cc3)c2)C[C@H]1C",
    "classification": "Yes"
  },
  {
    "compound": "C=CCN1C[C@H](C)N([C@@H](c2cccc(O)c2)c2cccc(C(=O)N(C)c3ccc(OC)cc3)c2)C[C@H]1C",
    "classification": "Yes"
  },
  {
    "compound": "C=CCN1C[C@H](C)N([C@@H](c2cccc(O)c2)c2cccc(C(=O)N(CC)c3ccc(F)cc3)c2)C[C@H]1C",
    "classification": "Yes"
  },
  {
    "compound": "C=CCN1C[C@H](C)N([C@@H](c2cccc(O)c2)c2cccc(C(=O)N(C)c3ccccc3F)c2)C[C@H]1C",
    "classification": "Yes"
  },
  {
    "compound": "C=CCN1C[C@H](C)N(C(c2ccc(C(=O)N(CC)CC)cc2)c2cccc(O)c2)C[C@H]1C (single isomer, unassigned)",
    "classification": "No"
  },
  {
    "compound": "C=CCN1C[C@H](C)N([C@H](c2cccc(O)c2)c2cccc(C(=O)N(C)c3ccccc3)c2)C[C@H]1C",
    "classification": "Yes"
  },
  {
    "compound": "C=CCN1C[C@H](C)N([C@@H](c2cccc(O)c2)c2cccc(C(=O)N(CCCC)c3ccccc3)c2)C[C@H]1C",
    "classification": "No"
  },
  {
    "compound": "C=CCN1C[C@H](C)N([C@@H](c2cccc(O)c2)c2cccc(C(=O)N(C)c3ccccc3)c2)C[C@H]1C",
    "classification": "No"
  },
  {
    "compound": "C=CCN1C[C@H](C)N([C@@H](c2cccc(O)c2)c2cccc(C(=O)N(C)c3ccccc3C(F)(F)F)c2)C[C@H]1C",
    "classification": "Yes"
  },
  {
    "compound": "C=CCN1C[C@H](C)N([C@@H](c2cccc(O)c2)c2cccc(C(=O)N(CC)c3ccccc3)c2)C[C@H]1C",
    "classification": "Yes"
  },
  {
    "compound": "C=CCN1C[C@H](C)N([C@@H](c2cccc(O)c2)c2cccc(C(=O)N(c3ccccc3)C3CC3)c2)C[C@H]1C",
    "classification": "Yes"
  },
  {
    "compound": "C=CCN1C[C@H](C)N([C@@H](c2cccc(O)c2)c2cccc(C(=O)N(C)c3ccc(F)cc3)c2)C[C@H]1C",
    "classification": "Yes"
  },
  {
    "compound": "C=CCN1C[C@H](C)N([C@@H](c2cccc(O)c2)c2cccc(C(=O)N(C)c3ccc([N+](=O)[O-])cc3)c2)C[C@H]1C",
    "classification": "Yes"
  }
]
